These data points were gathered from patent US20190225650A1.

Task for the reader: assign each of the following molecules its reported EC50.
- Tested on: HRE-bla ME-180 cells
- experimentNotes: Reporter gene assay (HRE-bla ME-180 HIF reporter, GeneBLAzer)
- Assay type: cell-based, human
- studyConditions: 24 hour normoxia
- Method: The following reagents were used: • DMEM+GutaMAX: (#10569044, Invitrogen) • Black clear bottom plates: (#3603, Costar) • HRE-bla-ME-180 cell line: (#K1644, Invitrogen) • Gene-Blazer reagent & protocol: (#K1096, Invitrogen) • Plate reader: Biotek Synergy 2 • Chetomin: (C9623, Sigma) 4 hours prior to experiment: HRE-bla ME-180 cells were seeded at a density of 20,000 cells/well in a volume of 180 μl in black clear bottom 96-well plates. 180 μl of assay medium was added to the cell-free control wells. […]
Bridge positions count the residues as written; N and C are the ends. Square brackets hold non-standard residues; d marks the D form. Peptide text beside a SMILES is read from it. S5 = C=CCCC[C@](C)(N)C(=O)O; Nle = CCCC[C@H](N)C(=O)O

Q. State its EC50: CC[C@H](C)[C@H](NC(=O)[C@H](Cc1ccccc1)NC(C)=O)C(=O)N[C@@H](CO)C(=O)N[C@@H](CCC(=O)O)C(=O)N[C@@H](CCC(=O)O)C(=O)N[C@H](C(=O)N[C@@H](CC(C)C)C(=O)N[C@@H](CCSC)C(=O)N[C@@]1(C)CCCC=CCCC[C@@](C)(C(=O)N[C@@H](CCSC)C(=O)N[C@@H](C)C(=O)N[C@@H](CC(C)C)C(N)=O)NC(=O)[C@H]([C@@H](C)CC)NC(=O)[C@H](C(C)C)NC(=O)[C@H](CC(C)C)NC1=O)C(C)C [SP-230] (Ac-FISEEVLM[S5]LVI[S5]MAL-NH2; staple 9-13)
A. > 30 µM

Q. Consider the molecule CC[C@H](C)[C@H](NC(=O)[C@H](Cc1ccccc1)NC(C)=O)C(=O)N[C@@H](CC(=O)O)C(=O)N[C@@H](CCC(=O)O)C(=O)N[C@@H](CCC(=O)O)C(=O)N[C@H](C(=O)N[C@@H](CC(C)C)C(=O)N[C@@H](C)C(=O)N[C@@]1(C)CCCC=CCCC[C@@](C)(C(=O)N[C@@H](C)C(=O)N[C@@H](C)C(=O)N[C@@H](CC(C)C)C(=O)N[C@@H](CC(=O)O)C(N)=O)NC(=O)[C@H]([C@@H](C)CC)NC(=O)[C@H](C(C)C)NC(=O)[C@H](CC(C)C)NC1=O)C(C)C [SP-60] (Ac-FIDEEVLA[S5]LVI[S5]AALD-NH2; staple 9-13) and give its recorded EC50.
A. > 30 µM

Q. Indicate its recorded EC50; the molecule in question is CCCC[C@H](NC(=O)[C@H](CC(C)C)NC(=O)[C@@H](NC(=O)[C@H](CCC(=O)O)NC(=O)[C@H](CCC(=O)O)NC(=O)[C@H](CC(=O)O)NC(=O)[C@@H](NC(=O)[C@H](Cc1ccccc1)NC(C)=O)[C@@H](C)CC)C(C)C)C(=O)N[C@@]1(C)CCCC=CCCC[C@@](C)(C(=O)N[C@@H](CCCC)C(=O)N[C@@H](C)C(=O)N[C@@H](Cc2ccccc2)C(N)=O)NC(=O)[C@H]([C@@H](C)CC)NC(=O)[C@H](C(C)C)NC(=O)[C@H](CC(C)C)NC1=O [SP-220] (Ac-FIDEEVL[Nle][S5]LVI[S5][Nle]AF-NH2; staple 9-13)
A. > 30 µM

Q. Find the measured EC50 of CCCC[C@H](NC(=O)[C@H](CCC(=O)O)NC(=O)[C@@H](NC(=O)[C@@H](NC(=O)[C@H](CC(C)C)NC(=O)[C@]1(C)CCCC=CCCC[C@](C)(NC(=O)[C@H](C)NC(=O)[C@H](CC(=O)O)NC(=O)[C@@H](NC(=O)[C@H](Cc2ccccc2)NC(C)=O)[C@@H](C)CC)C(=O)N[C@@H]([C@@H](C)O)C(=O)N[C@@H](CC(C)C)C(=O)N[C@@H](CCCC)C(=O)N1)C(C)C)[C@@H](C)CC)C(=O)N[C@@H](C)C(=O)N[C@@H](CC(C)C)C(N)=O [SP-149] (Ac-FIDA[S5]TL[Nle][S5]LVIE[Nle]AL-NH2; staple 5-9) and report it.
A. 5 to 15 µM
